# Run description: Pharmacokinetics (plasma and lung tissue) after single and 5-day repeat oral dosing in female 129S1 mice
# Conditions used: female, 129S1, mouse, in vivo, po, 250 mg/kg, AUC∞, plasma; 250 mg/kg PO multiple, 5-day, dose

Compound: Cc1c(-c2ccc(O)cc2)n(Cc2ccc(OCCN3CCCCC3)cc2)c2ccc(O)cc12 [Pipendoxifene]
Value units: ng·h/mL
AUC(0-inf): 11700

====

# Run description: Pharmacokinetics (plasma and lung tissue) after single and 5-day repeat oral dosing in female 129S1 mice
# Conditions used: female, 129S1, mouse, in vivo, po, 250 mg/kg, MRTlast, lung; 250 mg/kg PO multiple, 5-day, dose

Compound: Cc1c(-c2ccc(O)cc2)n(Cc2ccc(OCCN3CCCCC3)cc2)c2ccc(O)cc12 [Pipendoxifene]
MRT last at 5 day / h: 7.22

====

# Run description: Pharmacokinetics (plasma and lung tissue) after single and 5-day repeat oral dosing in female 129S1 mice
# Conditions used: female, 129S1, mouse, plasma, oral, 250 mg/kg, Mean plasma concentration, 250 mg/kg PO single dose; 0.5 hr
Measured property: concentration at 0.5 h (ng/mL)

Molecule: Cc1c(-c2ccc(O)cc2)n(Cc2ccc(OCCN3CCCCC3)cc2)c2ccc(O)cc12 [Pipendoxifene]
Measured property: concentration at 0.5 h
Value units: ng/mL
Test result: 88.8

====

# Run description: in vivo
# Conditions used: male, Sprague-Dawley, rat, po, 250 mg/kg, Cmax

Compound: Cc1c(-c2ccc(O)cc2)n(Cc2ccc(OCCN3CCCCC3)cc2)c2ccc(O)cc12 [Pipendoxifene]
Cmax (ng/mL): 336

====

# Run description: Pharmacokinetics (plasma, lung at 24 h) after single oral dosing in male Sprague-Dawley rats
# Conditions used: male, Sprague-Dawley, rat, in vivo, po, 250 mg/kg, t1/2, male SD rat plasma, single oral 250 mg/kg (Group 1), mean
Measured property: half-life (h)

Compound: Cc1c(-c2ccc(O)cc2)n(Cc2ccc(OCCN3CCCCC3)cc2)c2ccc(O)cc12 [Pipendoxifene]
Measured property: half-life
Test result: 6.06

====

# Run description: Pharmacokinetics (plasma, lung at 24 h) after single oral dosing in male Sprague-Dawley rats
# Conditions used: male, Sprague-Dawley, rat, plasma, po, 1000 mg/kg, Cmax, male SD rat plasma, single oral 1000 mg/kg (Group 4), one outlier excluded, individual rats 459, 460, 461

Compound: Cc1c(-c2ccc(O)cc2)n(Cc2ccc(OCCN3CCCCC3)cc2)c2ccc(O)cc12 [Pipendoxifene]
Cmax [ng/mL]: 365

====

# Run description: in vivo
# Conditions used: female, 129/S, mouse, po, L/P Ratio

Compound: Cc1c(-c2ccc(O)cc2)n(Cc2ccc(OCCN3CCCCC3)cc2)c2ccc(O)cc12 [Pipendoxifene]
Kp: 4.03

====

# Run description: Pharmacokinetics (plasma and lung tissue) after single and 5-day repeat oral dosing in female 129S1 mice
# Conditions used: female, 129S1, mouse, in vivo, 50 mg/kg

Compound: Cc1c(-c2ccc(O)cc2)n(Cc2ccc(OCCN3CCCCC3)cc2)c2ccc(O)cc12 [Pipendoxifene]
Value units: ng/g
concentration at 8 hr: 7840

====

# Run description: in vivo
# Conditions used: male, Sprague-Dawley, rat, po, 500 mg/kg, Cmax
Measured property: Cmax (ng/mL)

Compound: Cc1c(-c2ccc(O)cc2)n(Cc2ccc(OCCN3CCCCC3)cc2)c2ccc(O)cc12 [Pipendoxifene]
Test result: 462

====

# Run description: Pharmacokinetics (plasma, lung at 24 h) after single oral dosing in male Sprague-Dawley rats
# Conditions used: male, Sprague-Dawley, rat, in vivo, po, 250 mg/kg, Cmax, male SD rat plasma, single oral 250 mg/kg (Group 1), individual rats 450, 451, 452
Measured property: Cmax (ng/mL)

Compound: Cc1c(-c2ccc(O)cc2)n(Cc2ccc(OCCN3CCCCC3)cc2)c2ccc(O)cc12 [Pipendoxifene]
Measured property: Cmax
Value units: ng/mL
Test result: 334

====

# Run description: in vivo
# Conditions used: male, Sprague-Dawley, rat, po, 1000 mg/kg, Plasma concentration
Measured property: concentration at 2 hr (ng/mL)

Compound: Cc1c(-c2ccc(O)cc2)n(Cc2ccc(OCCN3CCCCC3)cc2)c2ccc(O)cc12 [Pipendoxifene]
Value units: ng/mL
Test result: 226

====

# Run description: Pharmacokinetics (plasma and lung tissue) after single and 5-day repeat oral dosing in female 129S1 mice
# Conditions used: female, 129S1, mouse, in vivo, po, 250 mg/kg

Molecule: Cc1c(-c2ccc(O)cc2)n(Cc2ccc(OCCN3CCCCC3)cc2)c2ccc(O)cc12 [Pipendoxifene]
half-life at 5 day: 2.52 h

====

# Run description: Pharmacokinetics (plasma, lung at 24 h) after single oral dosing in male Sprague-Dawley rats
# Conditions used: male, Sprague-Dawley, rat, in vivo, po, 250 mg/kg, Cmax, male SD rat plasma, single oral 250 mg/kg (Group 1), mean
Measured property: Cmax (µg/mL)

Compound: Cc1c(-c2ccc(O)cc2)n(Cc2ccc(OCCN3CCCCC3)cc2)c2ccc(O)cc12 [Pipendoxifene]
Measured property: Cmax
Value units: µg/mL
Test result: 0.311

====

# Run description: Pharmacokinetics (plasma and lung tissue) after single and 5-day repeat oral dosing in female 129S1 mice
# Conditions used: female, 129S1, mouse, in vivo, po, 250 mg/kg, tmax, lung; 250 mg/kg PO single dose

Compound: Cc1c(-c2ccc(O)cc2)n(Cc2ccc(OCCN3CCCCC3)cc2)c2ccc(O)cc12 [Pipendoxifene]
Tmax (h): 8

====

# Run description: in vivo
# Conditions used: male, Sprague-Dawley, rat, po, 250 mg/kg, tmax
Measured property: Tmax (h)

Compound: Cc1c(-c2ccc(O)cc2)n(Cc2ccc(OCCN3CCCCC3)cc2)c2ccc(O)cc12 [Pipendoxifene]
Test result: 6

====

# Run description: in vivo
# Conditions used: female, 129S1, mouse, po, 50 mg/kg

Compound: Cc1c(-c2ccc(O)cc2)n(Cc2ccc(OCCN3CCCCC3)cc2)c2ccc(O)cc12 [Pipendoxifene]
MRT last / h: 6.79

====

# Test system: SARS-CoV-2/WA1
# Assay type: cell-based
# Conditions used: Severe acute respiratory syndrome coronavirus 2, HeLa-ACE2
pIC50: −log10 of the molar value.
Measured property: pIC50

Compound: CNCc1ccc(-c2cc(-c3nc(-c4ccc(S(=O)(=O)C(C)C)cc4)cnc3N)on2)cc1 [berzosertib, reference compound]
Measured property: pIC50
Test result: 6.96

====

# Run description: Pharmacokinetics (plasma and lung tissue) after single and 5-day repeat oral dosing in female 129S1 mice
# Conditions used: female, 129S1, mouse, in vivo, 250 mg/kg, Lung/Plasma AUC ratio, Day 5; 250 mg/kg

Molecule: Cc1c(-c2ccc(O)cc2)n(Cc2ccc(OCCN3CCCCC3)cc2)c2ccc(O)cc12 [Pipendoxifene]
Kp: 44

====

# Run description: Pharmacokinetics (plasma, lung at 24 h) after single oral dosing in male Sprague-Dawley rats
# Conditions used: male, Sprague-Dawley, rat, in vivo, po, 1000 mg/kg, t1/2, male SD rat plasma, single oral 1000 mg/kg (Group 4), one outlier excluded, mean

Compound: Cc1c(-c2ccc(O)cc2)n(Cc2ccc(OCCN3CCCCC3)cc2)c2ccc(O)cc12 [Pipendoxifene]
half-life, h: 4.73

====

# Run description: Pharmacokinetics (plasma and lung tissue) after single and 5-day repeat oral dosing in female 129S1 mice
# Conditions used: female, 129S1, mouse, plasma, oral, 250 mg/kg, Plasma Conc., individual mouse, 250 mg/kg PO multiple, 5-day, dose; 4.0 hr
Measured property: concentration at 4 hr (ng/mL)

Molecule: Cc1c(-c2ccc(O)cc2)n(Cc2ccc(OCCN3CCCCC3)cc2)c2ccc(O)cc12 [Pipendoxifene]
Test result: 497

====

# Run description: Pharmacokinetics (plasma, lung at 24 h) after single oral dosing in male Sprague-Dawley rats
# Conditions used: male, Sprague-Dawley, rat, in vivo, po, 1000 mg/kg, t1/2, male SD rat plasma, single oral 1000 mg/kg (Group 4), all data included, individual rats 459, 460, 461

Compound: Cc1c(-c2ccc(O)cc2)n(Cc2ccc(OCCN3CCCCC3)cc2)c2ccc(O)cc12 [Pipendoxifene]
Value units: h
half-life: 4.3

====

# Run description: Pharmacokinetics (plasma, lung at 24 h) after single oral dosing in male Sprague-Dawley rats
# Conditions used: male, Sprague-Dawley, rat, in vivo, po, 500 mg/kg, t1/2, male SD rat plasma, single oral 500 mg/kg (Group 2), individual rats 453, 454, 455
Measured property: half-life

Compound: Cc1c(-c2ccc(O)cc2)n(Cc2ccc(OCCN3CCCCC3)cc2)c2ccc(O)cc12 [Pipendoxifene]
Measured property: half-life
Test result: 6.08 h

====

# Run description: in vivo
# Conditions used: male, Sprague-Dawley, rat, po, 250 mg/kg, AUClast
Measured property: AUC(0-t)

Compound: Cc1c(-c2ccc(O)cc2)n(Cc2ccc(OCCN3CCCCC3)cc2)c2ccc(O)cc12 [Pipendoxifene]
Test result: 4120 ng·h/mL
